Reference source: patent US20220146526A1

Experiment: LC/MS of blood plasma sample: number of times of freezing and thawing (Table F)
Assay type: physicochemical, human
Conditions: detection intensity, freezing and thawing 6 times vs 2 times
parameter-measured: Increase or decrease

compound	Increase or decrease
NC(=O)c1cccnc1 [Nicotinamide]	Increase
Nc1ccccc1C(=O)CC(N)C(=O)O (stereo not shown)	Increase
Nc1nc2c(ncn2[C@@H]2O[C@H](COP(=O)(O)O)[C@@H](O)[C@H]2O)c(=O)[nH]1 [Guanosine monophosphate]	Increase
O=c1ccn([C@@H]2O[C@H](CO)[C@@H](O)[C@H]2O)c(=O)[nH]1	Increase
O=c1[nH]cnc2nc[nH]c12	Increase

Proceed to the following item.
Exam item: // returns reported Increase or decrease for input C[N+](C)(C)CC(O)CC(=O)[O-] (stereo not shown)
Marked response: Increase

* * *

Test: GC/MS of blood plasma sample: time from blood collection to centrifugation (Table A)
Assay type: physicochemical, human
Conditions: different from individual to individual, individuals with increase, relative to 1 at 15 minutes, collection to centrifugation, after 4 hours
parameter-measured: Rate of increase or decrease (first value, increase)
Please reply with the value in numeric form only.

compound	readout-number
CC(=O)N[C@@H](CO)C(=O)O	1.69
OC[C@H]1O[C@@](CO)(O[C@H]2O[C@H](CO)[C@@H](O)[C@H](O)[C@H]2O)[C@@H](O)[C@@H]1O	2.53
O=c1ccn([C@@H]2O[C@H](CO)[C@@H](O)[C@H]2O)c(=O)[nH]1	1.48

Exam item: // returns reported Rate of increase or decrease (first value, increase) for input O=P(O)(O)OCC(O)CO (stereo not shown) [Glycerol-3-phosphate]
Marked response: 4.90

Exam item: // returns reported Rate of increase or decrease (first value, increase) for input O=C(O)C(=O)O
Marked response: 3.80

* * *

Test: LC/MS of blood plasma sample: time from blood collection to cooling of blood (Table E)
Format: physicochemical, human
Conditions: detection intensity, blood collection to cooling 5 minutes or more vs 1 minute or less

molecule	Increase or decrease
NCCc1ccc(O)c(O)c1 [Dopamine]	Increase
Nc1ncnc2c1ncn2[C@@H]1O[C@H](CO)[C@@H](O)[C@H]1O [Adenosine]	Increase
C[S+](CC[C@H](N)C(=O)[O-])C[C@H]1O[C@@H](n2cnc3c(N)ncnc32)[C@H](O)[C@@H]1O (stereo partly shown) [S-adenosylmethionine]	Increase

* * *

Experiment: GC/MS of blood plasma sample: number of times of freezing and thawing (Table C)
Format: physicochemical, human
Conditions: detection intensity, freezing and thawing 10 times vs 2 times
parameter-measured: Increase or decrease

molecule	result
CN(C)CC(=O)O	Increase
NC(=O)NC1NC(=O)NC1=O (stereo not drawn)	Increase

* * *

Experiment: LC/MS of serum sample: number of times of freezing and thawing (Table M)
Format: physicochemical, human
Parameters: key: detection intensity relative to 1 at 2 freeze-thaw cycles
Conditions: 10 times of freezing and thawing; detection intensity relative to 1 at 2 times
Each item that follows carries a reported Rate of increase or decrease.

molecule	result
O=C(O)CC(O)C(=O)O (centres unmarked)	0.64
N[C@@H](CC(=O)O)C(=O)O	0.53
CC(C)[C@H](N)C(=O)O	0.56
NCCc1c[nH]c2ccc(O)cc12	0.65
CC(C)(CO)[C@@H](O)C(=O)NCCC(=O)O	0.55

Exam item: // returns reported Rate of increase or decrease for input N[C@@H](Cc1ccccc1)C(=O)O
Marked response: 0.57

Exam item: // returns reported Rate of increase or decrease for input N[C@@H](CCC(=O)O)C(=O)O
Marked response: 0.63

Exam item: // returns reported Rate of increase or decrease for input O=C(O)[C@@H]1CCCN1
Marked response: 0.59
